biological target: CD33 (Sino Biological, Cat #12238-H08H) (UniProt P20138 18-259); assay: BLI, IgG captured on anti-human Fc sensor, 50 nM CD33, pH 7.4 vs pH 5.4
Sequence (P20138 18-259 limits assumed): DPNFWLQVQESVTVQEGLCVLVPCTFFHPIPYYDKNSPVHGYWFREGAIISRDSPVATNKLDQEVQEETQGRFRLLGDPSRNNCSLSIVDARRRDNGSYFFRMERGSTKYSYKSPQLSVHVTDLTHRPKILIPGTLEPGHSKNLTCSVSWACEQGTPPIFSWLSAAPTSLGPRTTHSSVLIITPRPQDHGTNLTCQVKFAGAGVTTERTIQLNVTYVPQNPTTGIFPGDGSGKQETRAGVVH

| Binder | binding result |
| --- | --- |
| MYT2645 (antibody, V domains shown, IgG; IMGN779 VL variant #29 (S99H)) VH: QVQLQQPGAEVVKPGASVKMSCKASGYTFTSYYIHWIKQTPGQGLEWVGVIYPGNDDISYNQKFQGKATLTADKSSTTAYMQLSSLTSEDSAVYYCAREVRLRYFDVWGQGTTVTVSS VL: EIVLTQSPGSLAVSPGERVTMSCKSSQSVFFSSSQKNYLAWYQQIPGQSPRLLIYWASTRESGVPDRFTGSGSGTDFTLTISSVQPEDLAIYYCHQYLHSRTFGQGTKLEIK | binds |
| MYT1349 (antibody, V domains shown, IgG; vadastuximab VH variant #15 (G54H)) VH: QVQLVQSGAEVKKPGASVKVSCKASGYTFTNYDINWVRQAPGQGLEWIGWIYPHDGSTKYNEKFKAKATLTADTSTSTAYMELRSLRSDDTAVYYCASGYEDAMDYWGQGTTVTVSS VL: DIQMTQSPSSLSASVGDRVTINCKASQDINSYLSWFQQKPGKAPKTLIYRANRLVDGVPSRFSGSGSGQDYTLTISSLQPEDFATYYCLQYDEFPLTFGGGTKVEIK | binds |
| MYT1245 (antibody, V domains shown, IgG; IMGN779 VH variant #33 (L102H)) VH: QVQLQQPGAEVVKPGASVKMSCKASGYTFTSYYIHWIKQTPGQGLEWVGVIYPGNDDISYNQKFQGKATLTADKSSTTAYMQLSSLTSEDSAVYYCAREVRHRYFDVWGQGTTVTVSS VL: EIVLTQSPGSLAVSPGERVTMSCKSSQSVFFSSSQKNYLAWYQQIPGQSPRLLIYWASTRESGVPDRFTGSGSGTDFTLTISSVQPEDLAIYYCHQYLSSRTFGQGTKLEIK | binds |
